Molecular target: T1, Human Nrp2-b1b2 (Neuropilin-2 domains b1b2, residues 276–595) (human, UniProt O60462 276-595)
T1 sequence (looked up): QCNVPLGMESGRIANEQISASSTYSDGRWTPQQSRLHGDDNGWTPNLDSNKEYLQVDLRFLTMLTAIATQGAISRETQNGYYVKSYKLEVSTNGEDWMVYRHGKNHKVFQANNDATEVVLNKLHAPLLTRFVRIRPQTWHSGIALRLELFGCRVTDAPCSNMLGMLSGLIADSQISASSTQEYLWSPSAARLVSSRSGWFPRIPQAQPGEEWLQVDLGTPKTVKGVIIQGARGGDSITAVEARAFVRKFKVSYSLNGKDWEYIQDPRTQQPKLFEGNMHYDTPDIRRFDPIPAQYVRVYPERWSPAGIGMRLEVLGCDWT
Assay: differential scanning fluorimetry
parameter: pKd
// pKd is dimensionless: -log10 of concentration (M)

Data request, read-out pKd, for WRQVHSIIRR [processed VEGF-C C-terminus peptide (215-RQVHSIIRR-223)]
3.70
